Give IC50 for every item shown.
- target.entity: human mPGES-1 (Homo sapiens, UniProt O14684)
- Sequence (O14684 1-152): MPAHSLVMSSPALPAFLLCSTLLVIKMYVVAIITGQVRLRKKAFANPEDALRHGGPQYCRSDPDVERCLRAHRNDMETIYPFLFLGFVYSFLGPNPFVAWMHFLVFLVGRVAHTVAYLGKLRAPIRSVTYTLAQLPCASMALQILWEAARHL
# unit: µM | format: bare number

Look at this molecule and give its reported IC50. `CC(C)Oc1ccc(-n2c(C(=O)O)c(NC(=O)c3cccnc3)c3cc(-c4ccc(C(F)(F)F)cn4)ccc32)cc1` 0.19

Param item = `CC(=O)Nc1c(C(=O)O)n(-c2ccc(OC(C)C)cc2)c2ccc(-c3ccc(OC(C)C)cc3)cc12` ; retrieve measured IC50. 3.1
